B1: PhoQ; a variant is named by its letters at X, in order, P23837 (parent)
chain: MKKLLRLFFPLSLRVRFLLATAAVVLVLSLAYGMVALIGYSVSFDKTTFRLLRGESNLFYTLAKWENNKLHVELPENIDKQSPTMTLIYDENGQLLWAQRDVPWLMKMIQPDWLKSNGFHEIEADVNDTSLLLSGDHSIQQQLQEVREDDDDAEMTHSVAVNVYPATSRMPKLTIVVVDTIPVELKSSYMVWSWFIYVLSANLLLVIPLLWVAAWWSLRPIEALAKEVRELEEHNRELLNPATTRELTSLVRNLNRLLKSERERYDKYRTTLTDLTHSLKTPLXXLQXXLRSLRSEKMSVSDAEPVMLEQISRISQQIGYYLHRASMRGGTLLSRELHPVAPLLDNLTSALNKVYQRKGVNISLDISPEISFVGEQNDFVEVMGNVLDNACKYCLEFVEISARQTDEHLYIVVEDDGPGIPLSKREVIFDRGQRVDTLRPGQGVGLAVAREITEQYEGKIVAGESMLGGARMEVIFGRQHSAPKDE

- Variants of: B1
- testDetails: enrichment ratio after two sorts for PhoP signalling (ratio (wild type AVST 3.29)); higher = more functional
- experimentalContext: with PhoP (E. coli)
The full ranking holds about 140,000 sequences; the median of “enrichment ratio after two sorts for PhoP signalling” is about 0, and the highest 2% start at about 11. This is one part of a sample in which the highest values are shown more often than they occur.
propertyMeasured: enrichment ratio

response.value for FGGM (field: enrichment ratio) = ≤ 0.25

response.value for SNAN (field: enrichment ratio) = 6.54

response.value for TAIE (field: enrichment ratio) = ≤ 0.25

response.value for SLSI (field: enrichment ratio) = 12.7

response.value for PRFL (field: enrichment ratio) = ≤ 0.25

response.value for WLSI (field: enrichment ratio) = ≤ 0.25

response.value for NNMM (field: enrichment ratio) = 17.4

response.value for AYPT (field: enrichment ratio) = ≤ 0.25

response.value for GCII (field: enrichment ratio) = 18.2

response.value for QLRC (field: enrichment ratio) = ≤ 0.25

response.value for TSQM (field: enrichment ratio) = 24
